System: HCT-116 colon
Experiment: NCI-60 one-dose screen, 48 h (100 = growth as untreated, 0 = no growth, -100 = all killed)
Settings: 10 µM unless noted
About 83,000 compounds went through this panel and 20% of them were active in at least one assay; those are over-represented in the sample as a whole.
Recorded Endpoint: growth (%)
Return type: number; implicit unit %.

Would you mind telling me what growth value was observed for O=C(CCCN1C(=O)/C(=C/c2ccccc2F)SC1=S)N1CCOCC1 ?
88.7

Quick one: growth of O=C(c1ccc(Cl)cc1)C1[C@H](c2ccc(Cl)cc2)[C@@H](c2ccccc2)NC12C(=O)Nc1ccc(Br)cc12 (stereo not given in full) ?
13.2

# query: growth of entry COc1cc(/C=C/C(=O)c2ccc(C(F)(F)F)cc2)ccc1Oc1nc(NCCO)nc(N2CCOCC2)n1
-18.5

Item Nc1ncc(-c2ccc3ncnc(N4CCc5cc(F)c(Cl)cc54)c3c2)cc1CO has what recorded growth?
6.3

Quick one: growth for COc1ccc(-n2c(SCC(=O)Nc3ccc(-c4nc5ccccc5[nH]4)cc3)nc3ccccc3c2=O)cc1 ?
-39.6
